B1: TPR t1 (parent)
chain: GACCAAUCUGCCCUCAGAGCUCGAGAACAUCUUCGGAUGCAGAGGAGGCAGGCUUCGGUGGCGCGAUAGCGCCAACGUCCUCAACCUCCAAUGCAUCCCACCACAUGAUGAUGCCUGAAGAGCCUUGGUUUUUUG

variants of: B1; assay: polymerase ribozyme fitness, log enrichment relative to wild type (log ratio); higher = more active; in vitro selection for triplet polymerase activity
measured_parameter: polymerase ribozyme fitness (log ratio)

• G51A C73G C124U = -1.14
• C8G G10A C20U A24U C49U G61A C80G G120U = -7.85
• C13G G44A G48C U55G C79U C124G = -0.404
• A2U C72U G110A = -4.59
• C56A C76A C88A C115U = -3.94
• U7C C56A G135U = -1.85
• A5G U55C C72A C73A G77U A121C = -1.86
• C8G A41C G63U G113A A118G = -3.33
• G60A C89A U116G = -4.84
• G61C C114U = -4
• A2U C62U G117U = -5.02
• C72U C98A = -4.69
• C49U A50C = -0.544
• C20U C62A = -2.35
• A6U G61U = -0.0436
• A37G G52A = -1.1
• C49A G51U G52U A90G A119U = -2.42
• C40U G69C U78A G110A = -5.28
• C3U G45U C72G = -2.05
• G44U G52A = -0.705
• C12U C115U = -0.992
• C40A G42U G77C = -2.77
• G45C C49G U59G C89U = -3.44
• C12G C72U = 0.127
• C40U C99U = -3.93
• G47U G128U = -2.73
• C70A C82A U92C = -3.72
• G60C C114A = -1.83
• C56U C73U C76U = -2.54
• A37U G60A C101U = -0.477
• C3G C11U C97A G120C = -5.66
• C3U G117U = -2.69
• A2C C62U G110A = -3.07
• U21C A84C C124G U131C = 1.43
• G19U C73A C80U U112C C114A U126A = -1.24
• A46U C89U G135U = -4.54
• C8G U9G C12G C49G = -0.256
• C53U C70U A74G G113C = -4.41
• U9G G17A A18U A46U A84G U87A U112C G127C U134A = -2.66
• G52C G69U C99U = -1.34
• C49G G63U U130G = -2.28
• C40G C53U G127C = -1.33
• G10U G113U = -2.76
• C53A U59C A105U = -2.61
• G71A A119G = -0.102
• U9A A111U = -1.46
• G117A C123A = -0.382
• A2C U54C G110A = -3.04
• G52U G117U U133A = -3.76
• C72G G110C = -2.42
• C80U C101U A111U U116A = -4.81
• C53A C82G A84G = -0.378
• A6U G44A C73U C86G = -3.18
• C34A C80U G127U = -4.5
• A5U C13G C53G A118U = -2.18
• G51A A121U = -0.44
• C64U C70G C79U A111U U112A C124A = -5.81
• G17A C86G = -4.48
• C15G A37G C62U C76U A118U C124U = -2.37
• A5G A103C C104A = -3.08
• G19U C53G = -2.76
• C3A A66U G69U = -1.08
• C11G G42A U59A A91C C94A A95G A118G = -4.19
• G122U = 0.322
• C123G U125C = 1.61
• G60A C62U U112G = 0.38
• G10U C22U G47A G63C U96A C123A = -5.69
• C56A U87G G113U = -3.92
• A6C C53G G69U = 0.253
• G48A C64U U78C G107U = -6.15
• A26U A74G C98U = -4.46
• G47U G58A A83C = -2.55
• A6G C62U U129C = -0.185
• A5C A37U G39C C86A C124G = -3.87
• C28U C70A = -4.5
• C85G G128A = -2.55
• G52C C72A U78C = 0.275
• C8G U30C G60C = -4.49
• A2G C22A = -4.99
• C4U A18C C53A C88G = -3.41
• C8U C72G G93A = -0.0349
• G42U G45U C88G A90G = -1.09
• G19A C72U = -3.79
• G57U G60C = -3.3
• U96A G113U = -3.61
• C49A U81C = -2.67
• G42C G61A = -0.466
• C72U U116A = -3.04
• G39A U54A A83U U92G = -4.73
• G36A G71U U78A = -1.53
• G71U G120C = 0.378

Numbers sourced from the RNAGym collection of RNA variant scans (doi:10.1073/pnas.2313332121).
